The following molecules are listed with their measured GI50 values.
system: MDA-MB-435; assay: NCI tumour cell line growth inhibition, 48 h
The source made the active and inactive calls. No stated cut-off is given here; in the data, active = GI50 up to about 1.1 µM and inactive = higher. Square brackets hold non-standard residues; d marks the D form. Peptide text beside a SMILES is read from it. Ac5c = NC1(C(=O)O)CCCC1
observationType: GI50

COc1ccc(C[C@@H]2OC3(C=CC(=O)CC3Sc3ccccc3)O[C@H]2Cc2ccc(OC)cc2)cc1 (stereo partly drawn): 1.9 µM (inactive)
CN1CCCN(C)CCCN(C)CCCN(C)CCC1: > 100 µM (inactive)
O=C(OCCN=C1c2ccccc2CCc2ccccc21)c1ccccc1: > 100 µM (inactive)
NS(=O)(=O)c1ccc(/N=N/c2cc3ccccc3c(C(=O)O)c2O)cc1: > 55.8 µM (inactive)
O=[N+]([O-])C(=C/c1cccc2ccccc12)/C(=C\c1cccc2ccccc12)[N+](=O)[O-]: 2.28 µM (inactive)
CC(CC(C)[C@H]1CCC2[C@H]3C(CC[C@@]21C)[C@@]1(C)CCC(O)C[C@H]1C[C@@H]3O)C(=O)O (stereo partly drawn): > 100 µM (inactive)
CC(C)=CCc1cc2c(cc1O)OC[C@H]1c3cc4c(cc3O[C@@H]21)OCO4: 32.6 µM (inactive)
CC(O)=NC(Cc1ccc2ccccc2c1)C(O)=NC(Cc1ccc(Cl)cc1)C(O)=NC(Cc1c[nH]c2ccccc12)C(O)=NC(CO)C(O)=NC(Cc1ccc(O)cc1)C(O)=NC(CCCN=C(N)N)C(O)=NC(CC(C)C)C(O)=NC(CCCN=C(N)N)C(=O)N1CCCC1C(O)=NC(C)C(=N)O (stereo not drawn): 40.1 µM (inactive)
COc1ccc(-c2c(C(C)=O)c(C)n(C3OC(CO)C(O)C(O)C3O)c(=S)c2C#N)cc1 (stereo not drawn): 72.6 µM (inactive)
CSc1c(C#N)c(=O)n(N)c2[nH]nc(C)c12: > 100 µM (inactive)
Cc1cc(C)c2c(=O)n(CN3CC4Nc5ccccc5C4C3)sc2n1 (stereo not drawn): 19.5 µM (inactive)
O=C(NCCN(CCNC(=O)c1cccc(O)c1O)CCNC(=O)c1cccc(O)c1O)c1cccc(O)c1O: 21.7 µM (inactive)
COc1ccc(C(=O)N=C2N(c3ccccc3)C(=N/c3ccccc3)/C(=N\c3ccccc3)N2c2ccccc2)cc1: 88.3 µM (inactive)
Cc1ccc(C(=O)OCC(C)C)cc1/N=N/N(C)C: 95.9 µM (inactive)
NCC(=O)NC1(C(=O)O)CCCC1 (H-Gly-[Ac5c]-OH): > 100 µM (inactive)
CCOC(=O)c1sc2nc(SC)nc3c2c1NCN3C: > 100 µM (inactive)
CCOC(=O)C(Cl)(NC(=O)OCc1ccccc1)C(F)(F)F (stereo not drawn): > 100 µM (inactive)
CNC(=O)N(CCC#N)CCN(C(=O)NC)c1ccccc1: > 100 µM (inactive)

====

test system: TK-10; assay: NCI tumour cell line growth inhibition, 48 h
Active and inactive are the calls of the source. No stated cut-off is given here; in the data, active = GI50 up to about 1.1 µM and inactive = higher. Square brackets hold non-standard residues; d marks the D form. Peptide text beside a SMILES is read from it. Ac5c = NC1(C(=O)O)CCCC1
The following compounds are listed with their measured GI50 values.
observationType: GI50

O=C1Sc2ccccc2C(=O)N2CCSC12 (centres undefined): > 100 µM (inactive)
N=S(c1ccccc1[N+](=O)[O-])c1ccccc1[N+](=O)[O-]: 3.84 µM (inactive)
CC[C@@H]1CC[C@@H]2[C@H](CC[C@]3(C)[C@@H](OC(C)=O)CC[C@@H]23)[C@H]1COC(C)=O: > 100 µM (inactive)
COC(=O)c1ccccc1CC1Cc2cccc(C)c2C1=O (centres undefined): 21.3 µM (inactive)
CC(=O)Nc1ccc(/C=C(\NC(=O)c2ccccc2)C(=O)NNS(=O)(=O)c2ccc(C)cc2)cc1: > 100 µM (inactive)
N/C(=N\c1ccc(Cl)cc1)NS(=O)(=O)c1ccc(-c2ccccn2)s1: 17.3 µM (inactive)
COC(=O)CCCN(C)c1nc(N)n[nH]1: > 100 µM (inactive)
CN1CN(c2ccccc2)C2(CCN(Cc3nc4ccccc4s3)CC2)C1=O: 16.3 µM (inactive)
COc1ccc2ccccc2c1C1NC(=O)c2ccccc2N1 (centres undefined): 5.15 µM (inactive)
CC1(C)O[C@H]2Cn3c(c(C#N)c4ccccc43)[C@H]2O1: > 100 µM (inactive)
Cn1c(NNc2ccccc2)cc(=O)[nH]c1=O: > 100 µM (inactive)
CC(C)(C)c1cc(C(OCCl)(C(F)(F)F)C(F)(F)F)c2c(c1)C(C(F)(F)F)(C(F)(F)F)OC21c2ccccc2C(=O)c2ccccc21: > 100 µM (inactive)
Cc1c(CNc2ccc(C(=O)NC(CC(=O)O)C(=O)O)cc2)ccc2nc(N)nc(N)c12 (centres undefined): 1.86 µM (inactive)
O=C1OC(c2ccco2)=N/C1=C\c1ccc(Cl)c(Cl)c1: 66.7 µM (inactive)
CCOc1cc(C2SCC(=O)N2c2nc3cc4sc(N5C(=O)CSC5c5ccc(O)c(OCC)c5)nc4cc3s2)ccc1O (centres undefined): > 100 µM (inactive)
O=c1c2cccnc2[nH]c2ccc3cn[nH]c3c12: > 10 µM (inactive)
NC(CCC(=O)O)C(=O)NC(Cc1ccc(N(CCCl)CCCl)cc1)C(=O)O (centres undefined): > 100 µM (inactive)
O=C(Cc1nc2ccccc2c(=O)n1-c1c(Cl)cccc1Cl)c1ccncc1: > 10 µM (inactive)
Cc1cc2c(C)nn(Cc3ccccc3)c2c(C(N)=O)c1C: > 100 µM (inactive)
CCOP(=O)(C/C=C/Cn1nc(Br)c(=O)[nH]c1=O)OCC: > 100 µM (inactive)
C[N+](C)(C)CC(=O)N/N=C(/Cc1nc2c3c(ccc2nc1O)C(=O)c1ccccc1C3=O)C(=O)Nc1ccc(Cl)c(Cl)c1: 39.1 µM (inactive)
NCC(=O)NC1(C(=O)O)CCCC1 (H-Gly-[Ac5c]-OH): > 100 µM (inactive)
O=C(ON=c1c2ccccc2ccc2ccccc12)c1cc([N+](=O)[O-])cc([N+](=O)[O-])c1: > 100 µM (inactive)
Cc1ccc2nc(-c3ccc(-c4nc5ccc(C)cc5o4)c(O)c3)oc2c1: > 100 µM (inactive)
CS/C1=C(\c2ccc(C)cc2)N(c2ccccc2)C(=O)C(=O)N(c2ccccc2)/C(c2ccc(C)cc2)=C(/SC)SS1: > 100 µM (inactive)
Cn1c2c(c3c(=O)[nH]ncc31)CCCc1ccccc1-2: 28.7 µM (inactive)
Cc1cn(CC2=NCC(C)(C)N2)c(=O)[nH]c1=O: > 100 µM (inactive)
CC12Oc3ccc4ccccc4c3C1c1c(ccc3ccccc13)O2 (centres undefined): > 100 µM (inactive)
CCOC(=O)CCC1(C(=O)OC)CCCC1=O (centres undefined): > 100 µM (inactive)
